MHC by entry:
Test system: human erythrocytes
Experiment: MHC hemolysis assay
Assay type: cell-based
Settings: hemolysis, human erythrocytes, 37° C. 2 hours
I only need the number, in µM, no unit after it.

| molecule | MHC / µM |
| --- | --- |
| CC1C=CC=CC=CC=CC=CC=CC=CC(OC2OC(C)C(O)C(N)C2O)CC2OC(O)(CC(O)CC(O)C(O)CCC(O)CC(O)CC(=O)OC(C)C(C)C1O)CC(O)C2C(=O)NCCN (centres unmarked) [BC] | 250 |

# next molecule below
Entry C[C@@H]1[C@H](O)[C@@H](C)/C=C/C=C/C=C/C=C/C=C/C=C/C=C/[C@H](OC2O[C@H](C)[C@@H](O)[C@H](N)[C@@H]2O)C[C@@H]2O[C@](O)(C[C@@H](O)C[C@@H](O)[C@H](O)CC[C@@H](O)C[C@@H](O)CC(=O)O[C@H]1C)C[C@H](O)[C@H]2C(=O)O (some centres unmarked) [AmB, Amphotericin B] ; MHC = 8.4
